# Tested on: Respiratory syncytial virus
# protocol: Antiviral activity against RSV assessed as inhibition of viral replication by cell based assay
# Format: functional, organism-based
# run.parameters: human respiratory syncytial virus
Decision: EC50 beneath 20 nM gives 1; EC50 meeting or exceeding 20 nM gives -1.

Field: example entries. Status: answers known.
compound	system.under.test	group
CC(C)CCn1c(CN2C(=O)/C(=N/O)c3ccccc32)nc2ccccc21	Respiratory syncytial virus	1
CS(=O)(=O)CCCn1c(CN2C(=O)/C(=N/OCc3ccc(S(C)(=O)=O)cc3)c3cnccc32)nc2ccccc21	Respiratory syncytial virus	-1
COCCCn1c(CN2C(=O)/C(=N/OCC(O)CC#N)c3ccccc32)nc2ccccc21 (stereo unspecified)	Respiratory syncytial virus	-1
CS(=O)(=O)c1ccc(CO/N=C2/C(=O)N(Cc3nc4ccccc4n3CCCCO)c3ncccc32)cc1	Respiratory syncytial virus	1
N#CCCCn1c(CN2C(=O)/C(=N/OCC(F)(F)F)c3cccnc32)nc2ccccc21	Respiratory syncytial virus	-1

Consider the record given below.
QUERY: Is EC50 of CN(C)CCn1c(CN2C(=O)/C(=N/OCc3ccc(C(=O)O)cc3)c3ccccc32)nc2ccccc21 strictly below 20 nM?
RESULT: 1

---

# protocol: in vivo
# run.parameters: rat, po, 5 mg/kg
attribute.measured: Cmax (ng/mL)
Give bare numbers, in ng/mL.

QUERY: Requested read-out: Cmax. Entry: CS(=O)(=O)CCCn1c(CN2C(=O)/C(=N/OCCF)c3cccnc32)nc2ccccc21
RESULT: 14

---

# Tested on: Respiratory syncytial virus
# protocol: Antiviral activity against RSV assessed as inhibition of viral replication by cell based assay
# Format: functional, organism-based
# run.parameters: human respiratory syncytial virus
pEC50: −log10 of the molar value.
// label = yes (1) if pEC50 is not less than 7, otherwise no (0)

Field: example entries. Status: answers known.
smiles.str	system.under.test	group
C=CCO/N=C1/C(=O)N(Cc2nc3ccccc3n2CCCOC)c2ccccc21	Respiratory syncytial virus	no (0)
COCCCn1c(CN2C(=O)/C(=N/OCc3ccncc3)c3ccccc32)nc2ccccc21	Respiratory syncytial virus	no (0)
COCCCn1c(CN2C(=O)/C(=N/OCCN(C)C)c3ccccc32)nc2ccccc21	Respiratory syncytial virus	no (0)

QUERY: Could you verify whether the entry COCCCn1c(CN2C(=O)/C(=N/OC(C)C)c3ccccc32)nc2ccccc21 shows pEC50 of no less than 7?
RESULT: no (0)

QUERY: Let us now turn to COC(=O)c1ccc(CO/N=C2/C(=O)N(Cc3nc4ccccc4n3CCN(C)C)c3ccccc32)cc1
RESULT: yes (1)

QUERY: Let us now turn to CS(=O)(=O)CCCn1c(CN2C(=O)/C(=N/OCCF)c3ccncc32)nc2ccccc21
RESULT: yes (1)

QUERY: Let us now turn to O=C1/C(=N/OCCF)c2ccncc2N1Cc1nc2ccccc2n1CCCCO
RESULT: yes (1)

QUERY: Let us now turn to N#CCCCn1c(CN2C(=O)/C(=N/O)c3cccnc32)nc2ccccc21
RESULT: yes (1)

---

# protocol: Permeability across human Caco-2 cells
Provide the reported Papp of each item.
Give bare numbers, in ×10⁻⁶ cm/s.

Recorded Papp, per entry:
smiles.str	Papp, ×10⁻⁶ cm/s
O=C1/C(=N/OCC(F)(F)F)c2cccnc2N1Cc1nc2ccccc2n1CCCCO	15.4
CS(=O)(=O)CCCn1c(CN2C(=O)/C(=N/OCCF)c3ccncc32)nc2ccccc21	1

Read the next record carefully.
QUERY: Requested read-out: Papp. Entry: O=C1/C(=N/OCCF)c2cccnc2N1Cc1nc2ccccc2n1CCCCO
RESULT: 11.5

---

# Test system: Respiratory syncytial virus
# protocol: Antiviral activity against RSV assessed as inhibition of viral replication by cell based assay
# Format: functional, organism-based
# run.parameters: human respiratory syncytial virus
Provide the reported EC50 of each item.
Give bare numbers, in nM.

smiles.str	EC50, nM
COCCCn1c(CN2C(=O)/C(=N/OCS(=O)(=O)O)c3ccccc32)nc2ccccc21	46
COC(=O)c1ccc(CO/N=C2/C(=O)N(Cc3nc4ccccc4n3CCC(C)C)c3ccccc32)cc1	23
COCCCn1c(CN2C(=O)/C(=N/OCCCF)c3ccccc32)nc2ccccc21	125

Provide EC50 for all items below, preserving their order.
1. COCCCn1c(CN2C(=O)/C(=[N+](/[O-])C(C)C)c3ccccc32)nc2ccccc21
2. CC(C)CCn1c(CN2C(=O)/C(=N/Oc3ccccc3)c3ccccc32)nc2ccccc21
3. CC(=O)OCCCCn1c(CN2C(=O)/C(=N/OCCF)c3cccnc32)nc2ccccc21

RESULT:
[230, 375, 54.6]

Provide EC50 for all items below, preserving their order.
1. CS(=O)(=O)CCCn1c(CN2C(=O)/C(=N/OCCF)c3cccnc32)nc2ccccc21
2. COCCCn1c(CN2C(=O)/C(=N/OC3CCCCC3)c3ccccc32)nc2ccccc21
3. O=C1/C(=N/O)c2ccncc2N1Cc1nc2ccccc2n1CCCCF
4. CO/N=C1/C(=O)N(Cc2nc3ccccc3n2CCC(C)C)c2ccccc21
5. CCN(CC)C(=O)CO/N=C1/C(=O)N(Cc2nc3ccccc3n2CCCOC)c2ccccc21
6. COCCCn1c(CN2C(=O)/C(=N/OCCN3CCCCC3)c3ccccc32)nc2ccccc21
7. COCCCn1c(CN2C(=O)/C(=N/OCC(=O)O)c3ccccc32)nc2ccccc21
8. CO/N=C1/C(=O)N(Cc2nc3ccccc3n2CCCCOC(C)=O)c2ccccc21

RESULT:
1: 29.2; 2: 652; 3: 17.9; 4: 87; 5: 26; 6: 682; 7: 295; 8: 30

---

# Test system: Respiratory syncytial virus
# protocol: Antiviral activity against RSV assessed as inhibition of viral replication by cell based assay
# Format: functional, organism-based
# run.parameters: human respiratory syncytial virus
attribute.measured: pEC50
Give bare numbers, as −log10 of the molar value.

Provide pEC50 for all items below, preserving their order.
1. C#CCCCO/N=C1/C(=O)N(Cc2nc3ccccc3n2CCCOC)c2ccccc21
2. N#CCCCn1c(CN2C(=O)/C(=N/OCC(F)(F)F)c3ccccc32)nc2ccccc21
3. N#CCCCn1c(CN2C(=O)/C(=N/OCCF)c3cccnc32)nc2ccccc21
4. C=CCCCO/N=C1/C(=O)N(Cc2nc3ccccc3n2CCCOC)c2ccccc21
5. CC(C)CCn1c(CN2C(=O)/C(=N/OCc3ccc(C(=O)N(C)C)cc3)c3ccccc32)nc2ccccc21
6. CS(=O)(=O)c1ccc(CO/N=C2/C(=O)N(Cc3nc4ccccc4n3CCCCO)c3ccccc32)cc1
7. COCCCn1c(CN2C(=O)/C(=N/OCC3CC3)c3ccccc32)nc2ccccc21
8. CC(=O)OCCCCn1c(CN2C(=O)/C(=N/OCc3ccc(S(C)(=O)=O)cc3)c3ccccc32)nc2ccccc21

RESULT:
[7.19, 7.18, 7.24, 6.72, 8.05, 7.92, 7.02, 8.30]

QUERY: Give pEC50 (Respiratory syncytial virus) of the following compound: COCCCn1c(CN2C(=O)/C(=N/OCCCCOC(C)=O)c3ccccc32)nc2ccccc21
RESULT: 7.21

---

# protocol: in vivo
# run.parameters: rat, po, 5 mg/kg
attribute.measured: bioavailability (%)
One number for each entry, in %.

QUERY: Requested read-out: bioavailability. Entry: CS(=O)(=O)CCCn1c(CN2C(=O)/C(=N/OCCF)c3cccnc32)nc2ccccc21
RESULT: 14

---

# protocol: Metabolic stability in human liver mocrosomes
# run.parameters: liver microsomes
attribute.measured: log10(half-life) (log10 of the value in min)
The figures below represent log10 of half-life, where half-life is stated in min.

Recorded log10(half-life), per entry:
smiles.str	log10(half-life)
CS(=O)(=O)CCCn1c(CN2C(=O)/C(=N/OCc3ccccn3)c3ccncc32)nc2ccccc21	1.32
CS(=O)(=O)c1ccc(CO/N=C2/C(=O)N(Cc3nc4ccccc4n3CCCC#N)c3ccncc32)cc1	1.46

Provide log10(half-life) for all items below, preserving their order.
1. COCCCn1c(CN2C(=O)/C(=N/OCC(N)=O)c3ccccc32)nc2ccccc21
2. N#CCCCn1c(CN2C(=O)/C(=N/O)c3cccnc32)nc2ccccc21
3. O=C1/C(=N/OCCF)c2ccncc2N1Cc1nc2ccccc2n1CCCCO
4. CO/N=C1/C(=O)N(Cc2nc3ccccc3n2CCCCO)c2cnccc21

RESULT:
[1.32, 2.00, 2.00, 1.92]

Provide log10(half-life) for all items below, preserving their order.
1. O=C1/C(=N/OCC(F)(F)F)c2cccnc2N1Cc1nc2ccccc2n1CCCCO
2. CO/N=C1/C(=O)N(Cc2nc3ccccc3n2CCCCF)c2cnccc21
3. CC(=O)OCCCCn1c(CN2C(=O)/C(=N/O)c3cccnc32)nc2ccccc21

RESULT:
1.81
1.41
0.11

Provide log10(half-life) for all items below, preserving their order.
1. COCCCn1c(CN2C(=O)/C(=N/OCC(F)(F)F)c3ccccc32)nc2ccccc21
2. CS(=O)(=O)c1ccc(CO/N=C2/C(=O)N(Cc3nc4ccccc4n3CCCCO)c3ccccc32)cc1
3. O=C1/C(=N/O)c2ccncc2N1Cc1nc2ccccc2n1CCCCF
4. COCCCn1c(CN2C(=O)/C(=N/OC)c3ccccc32)nc2ccccc21
5. N#CCCCn1c(CN2C(=O)/C(=N/OCC(F)(F)F)c3cccnc32)nc2ccccc21
6. COC(=O)c1ccc(CO/N=C2/C(=O)N(Cc3nc4ccccc4n3CCN(C)C)c3ccccc32)cc1
7. CO/N=C1/C(=O)N(Cc2nc3ccccc3n2CCCCO)c2ncccc21

RESULT:
1. 0.51
2. 1.11
3. 2.00
4. 1.20
5. 1.68
6. -0.22
7. 1.49

QUERY: Requested read-out: log10(half-life). Entry: N#CCCCn1c(CN2C(=O)/C(=N/OCC(F)(F)F)c3ccccc32)nc2ccccc21
RESULT: 1.26
